# study_target: recombinant human TFPI (tissue factor pathway inhibitor) (human, UniProt P10646 29-304)
# assay_method_text: cell-based or functional assay
experimental_readout: FXa assay OD, 10 nM Ab, 10 nM TFPI

What measured FXa assay OD, 10 nM Ab, 10 nM TFPI goes with clone 1024 (antibody, V domains shown) VH: EVQLVESGGGLVKPGGSLRLSCAASGFTFSSYAMSWVRQAPGKGLEWVSTITTGGSYTYYADSVDGRFTISRDNAKNSLYLQMNSLRAEDTAVYYCARQDGNFLMDYWGQGTLVTVSS VL: DVVMTQTPLSLPVTLGQPASISCKSSQSLLDLDGKTYLNWLQQRPGQSPKRLIYLVSKLDSGVPDRFTGSGSGTDFTLKISRVEAEDVGVYYCWQGTHFPFTFGQGTKVEIKR ?
0.0985
